meta.source: patent US20190367628A1

Target: T1, Cyno BCMA APP-Avi (cynomolgus, biotinylated (site not stated))
T1 construct: It was used as soluble biotinylated antigen; also called biotinylated cyno BCMA
T1 sequence (chain, as listed by the source limits assumed): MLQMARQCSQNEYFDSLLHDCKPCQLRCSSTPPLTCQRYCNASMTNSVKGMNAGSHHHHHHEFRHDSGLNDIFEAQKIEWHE
Test: flow cytometry of single yeast clone displaying the scFv, labelled with 900 pM biotinylated cyno BCMA, streptavidin/neutravidin-DyLight 633 detection
Each item that follows carries a reported MFI.
The reply should contain only the number, in MFI.

H2/L2-34 scFv (scFv) scFv: QVQLQDSEGGVVQPGRSLRLSCAASGFTFSSYGMHWVRQAPGKGLEWVAVISYTGTKKYYADSVKGRFTISRDNSKNTLYLQMNSLRAEDTAVYYCGGSGYALHDDYYGLDVWGQGTLVTVSSSGGGGSGGGGSGGGGSGGGGSQSALTQPASVSGSPGQSITISCTGTSSDVGGYNYVSWYQQHPGKAPKLMIYDVSNRPWGVSNRFSGSKFGNTASLTISGLQAEDEADYYCSSYTSSSALYVFGSGTKVTVM
6050

QUERY: Find the recorded MFI belonging to H2/L2-83 scFv (scFv) scFv: QAQLQGSGGGVVQPGRSLRLSCAASGFTFSSYGMHWVRQAPGKGLEWVAVISYKGSNKYYADSVKGRFTISRDNSKNTLYLQMNSLRAEDTAVYYCGGSGYALHDDYYGLDVWGQGTLVTVSSSGGGGSGGGGSGGGGSGGGGSQSALTQPASVSGSPGQSITISCTGTSSDVGGYNYVSWYQQHPGKAPKLMIYEVSNRLRGVSNRFSGSKFGNTASLTISGLQAEDEADYYCSSYTSSSTLYVFGSGTKVTVL and report it.
RESULT: 4880

QUERY: Which value of MFI has been reported for H2/L2-36 scFv (scFv) scFv: QAQLQSSGGGVVQPGRSLRLSCAASGFTFSSYGMHWVRQAPGKGLEWVAVISYKGSNKYYADSVKGRFTISRDNSKNTLYLQMNSLRAEDTAVYYCGGSGYALHDDYYGLDVWGQGTLVTVSSSGGGGSGGGGSGGGGSGGGGSQSALTQPASVSGSPGQSITISCTGTSSDVGGYNYVSWYQQHPGKAPKLMIYEVSNRLRGVSNRFSGSKFGNTASLTISGLQAEDEADYYCSSYTSSSTLYVFGSGTKVTVL in the records?
RESULT: 5590

QUERY: What value of measured MFI is listed for H2/L2-20 scFv (scFv) scFv: QAQLQSSGGGVVQPGRSLRLSCAASGFTVSSYGMHWVRQAPGKGLEWVAVISYTGSNKYYADSVKGRFTISRDNSKNTLYLQMNSLRAEDTAVYYCGGSGYALHDDYYGLDVWGQGTLVTVSSSGGGGSGGGGSGGGGSGGGGSQSALTQPASVSGSPGQSITISCTGTSSDVGGYNYVSWYQQHPGKAPKLMIYDVSNRLRGVSNRFSGSKFGNTASLTISGLQAEDEADYYCSSYTSSSALYVFGSGTKVTVL ?
RESULT: 7030

QUERY: Quick one: MFI for H2/L2-80 scFv (scFv) scFv: QVQLQSSGGGVVQPGRSLRLSCAASGFTFSSYGMHWVRQAPGKGLEWVAVISYTGSNKYYADSVKGRFTISRDNSKNTLYLQMNSLRAEDTAVYYCGGSGYALHDDYYGLDVWGQGTLVTVSSSGGGGSGGGGSGGGGSGGGGSQSALTQPASVSGSPGQSITISCTGTSSDVGGYNYVSWYQQHPGKAPKLMIYDVSNRAWGVSNRFSGSKFGNTASLTISGLQAEDEADYYCSSYTSSSALYVFGSGTKVTVL ?
RESULT: 6540

QUERY: Please give the measured MFI for this binder: H2/L2-18 scFv (scFv) scFv: QAQLQGSGGGVVQPGRSLRLSCAASGFTFSSYGMHWVRQAPGKGLEWVAVISYKGSHKYYADSVKGRFTISRDNSKNTLYLQMNSLRAEDTAVYYCGGSGYALHDDYYGLDVWGQGTLVTVSSSGGGGSGGGGSGGGGSGGGGSQSALTQPASVSGSPGQSITISCTGTSSDVGGYNYVSWYQQHPGKAPKLMIYDVSNRPWGVSNRFSGSKFGNTASLTISGLQAEDEADYYCSSYTSSSTLYVFGSGTKVTVL
RESULT: 7180

QUERY: Report MFI for H2/L2-47 scFv (scFv) scFv: QVQLQSSEGGVVQPGRSLRLSCAASGFTFSSYGMHWVRQAPGKGLEWVAVISYKGSNKYYADSVKGRFTISRDNSKNTLYLQMNSLRAEDTAVYYCGGSGYALHDDYYGLDVWGQGTLVTVSSSGGGGSGGGGSGGGGSGGGGSQSALTQPASVSGSPGQSITISCTGTSSDVGGYNYVSWYQQHPGKAPKLMIYDVSNRPWGVSNRFSGSKFGNTASLTISGLQAEDEADYYCSSYTSSSTLYVFGSGTKVTVL please.
RESULT: 5930

QUERY: I would be grateful if you could share the reported MFI for H2/L2-68 scFv (scFv) scFv: QAQLQSSEGGVVQPGRSLRLSCAASGFTFSSYGMHWVRQAPGKGLEWVAVISYRGFNKYYADSVKGRFTISRDNSKNTLYLQMNSLRAEDTAVYYCGGSGYALHDDYYGQDVWGQGTLVTVSSSGGGGSGGGGSGGGGSGGGGSQSALTQPASVSGSPGQSITISCTGTSSDVGGYNYVSWYQQHPGKAPKLMIYDVSNRLSGVSNRFSGSKFGNTASLTISGLQAEDEADYYCSSYTSSSTLYVFGSGTKVTVL .
RESULT: 7380

QUERY: Returns the measured MFI for the input binder. Input: H2/L2-88 scFv (scFv) scFv: QVQLQSSEGGVVQPGRSLRLSCAASGFTFSSYGMHWVRQAPGKGLEWVAVISYKGSNKYYADSVKGRFTISRDNSKNTLYLQMNSLRAEDTAVYYCGGSGYALHDDYYGLDVWGQGTLVTVSSSGGGGSGGGGSGGGGSGGGGSQSALTQPASVSGSPGQSITISCTGTSSDVGGYNYVSWYQQHPGKAPKLMIYEVSNRLRGVSNRFSGSKFGNTASLTISGLQAEDEADYYCSSYTSSSALYVFGSGTKVTVL
RESULT: 6440
